Reported IC50 ratio (DADLE) is given for each of the following compounds.
measured.on: δ opioid receptor (Mus musculus, UniProt P32300)
Construct: Both vasa deferentia were dissected out of mice; from tissue; host or cells: mouse vas deferens (isolated, electrically stimulated)
protocol.notes: antagonism of DADLE on MVD preparations (Example 7)
Assay type: cell-based
condition.summary: MVD; 100 nM of each compound, NTI = 20 nM; 15 min
Counter-ions that a name gives are not always drawn.
endpoint.label: IC50 ratio (DADLE)

INSERT INTO assay_data (compound, measurement) VALUES
  ('O=C1/C(=C/c2ccc([N+](=O)[O-])cc2)C[C@@]2(O)[C@H]3Cc4ccc(O)c5c4[C@@]2(CCN3CC2CC2)[C@H]1O5 [IIa, hydrochloride]', 1.90),
  ('O=C1/C(=C/c2ccc(F)cc2)C[C@@]2(O)[C@H]3Cc4ccc(O)c5c4[C@@]2(CCN3CC2CC2)[C@H]1O5 [IIg]', 2.29),
  ('O=C1/C(=C/c2cccc3ccccc23)C[C@@]2(O)[C@H]3Cc4ccc(O)c5c4[C@@]2(CCN3CC2CC2)[C@H]1O5 [IIl]', 12.7),
  ('O=C1/C(=C/c2ccccc2F)C[C@@]2(O)[C@H]3Cc4ccc(O)c5c4[C@@]2(CCN3CC2CC2)[C@H]1O5 [IIi]', 6.01),
  ('COc1ccc(/C=C2\C[C@@]3(O)[C@H]4Cc5ccc(O)c6c5[C@@]3(CCN4CC3CC3)[C@@H](O6)C2=O)cc1 [IIc]', 5.52),
  ('COc1ccccc1/C=C1\C[C@@]2(O)[C@H]3Cc4ccc(O)c5c4[C@@]2(CCN3CC2CC2)[C@@H](O5)C1=O [IIe]', 120),
  ('O=C1/C(=C/c2ccccc2Cl)C[C@@]2(O)[C@H]3Cc4ccc(O)c5c4[C@@]2(CCN3CC2CC2)[C@H]1O5 [IIj]', 130);

---

measured.on: δ1 receptors (Cavia porcellus)
Sequence (A0A286XTF2 1-366): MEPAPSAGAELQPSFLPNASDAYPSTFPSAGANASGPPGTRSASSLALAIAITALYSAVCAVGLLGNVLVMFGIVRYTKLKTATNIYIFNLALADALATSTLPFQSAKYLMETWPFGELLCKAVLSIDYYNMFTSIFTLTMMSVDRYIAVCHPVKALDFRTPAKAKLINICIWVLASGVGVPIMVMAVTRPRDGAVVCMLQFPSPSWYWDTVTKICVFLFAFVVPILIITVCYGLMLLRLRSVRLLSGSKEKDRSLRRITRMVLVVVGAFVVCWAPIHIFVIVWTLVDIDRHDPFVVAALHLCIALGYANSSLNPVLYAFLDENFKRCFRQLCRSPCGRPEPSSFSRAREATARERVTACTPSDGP
endpoint.label: Ki (nM)

INSERT INTO results (molecule, measurement) VALUES
  ('O=C1C(=Cc2ccccc2)C[C@@]2(O)[C@H]3Cc4ccc(O)c5c4[C@@]2(CCN3CC2CC2)[C@H]1O5 [BNTX, 7-Benzylidene-7-dehydronaltrexone]', 0.1);

---

measured.on: δ opioid receptor (Mus musculus, UniProt P32300)
Construct: Both vasa deferentia were dissected out of mice; from tissue; host or cells: mouse vas deferens (isolated, electrically stimulated)
protocol.notes: antagonism of DADLE on MVD preparations (Example 7)
Assay type: cell-based
Description: 2. Mouse Vas Deferens (MVD). […] The organ bath was maintained at 37° C. Concentration-response curves were obtained in the absence (control) and the presence of the antagonist are expressed as IC50 values. […] Therefore, a high IC50 ratio represents a correspondingly high degree of antagonism at a particular receptor. […] Therefore, a low Ke represents a correspondingly high degree of binding at a particular receptor.
Where a name gives a salt, the structure may show the parent alone.
Reported Kb is given for each of the following compounds.
endpoint.label: Kb (nM)

INSERT INTO measurements (compound, measured_on, measurement) VALUES
  ('O=C1/C(=C/c2cccc([N+](=O)[O-])c2)C[C@@]2(O)[C@H]3Cc4ccc(O)c5c4[C@@]2(CCN3CC2CC2)[C@H]1O5', 'δ opioid receptor (Mus musculus, UniProt P32300)', 20),
  ('O=C1/C(=C/c2ccccc2F)C[C@@]2(O)[C@H]3Cc4ccc(O)c5c4[C@@]2(CCN3CC2CC2)[C@H]1O5', 'δ opioid receptor (Mus musculus, UniProt P32300)', 20),
  ('COc1ccc(/C=C2\C[C@@]3(O)[C@H]4Cc5ccc(O)c6c5[C@@]3(CCN4CC3CC3)[C@@H](O6)C2=O)cc1', 'δ opioid receptor (Mus musculus, UniProt P32300)', 22),
  ('COc1ccccc1/C=C1\C[C@@]2(O)[C@H]3Cc4ccc(O)c5c4[C@@]2(CCN3CC2CC2)[C@@H](O5)C1=O', 'δ opioid receptor (Mus musculus, UniProt P32300)', 0.84),
  ('O=C1/C(=C/c2cccc3ccccc23)C[C@@]2(O)[C@H]3Cc4ccc(O)c5c4[C@@]2(CCN3CC2CC2)[C@H]1O5', 'δ opioid receptor (Mus musculus, UniProt P32300)', 8.5),
  ('O=C1/C(=C/c2ccccc2Cl)C[C@@]2(O)[C@H]3Cc4ccc(O)c5c4[C@@]2(CCN3CC2CC2)[C@H]1O5', 'δ opioid receptor (Mus musculus, UniProt P32300)', 0.76),
  ('O=C1C(=Cc2ccccc2)C[C@@]2(O)[C@H]3Cc4ccc(O)c5c4[C@@]2(CCN3CC2CC2)[C@H]1O5 [BNTX, 7-Benzylidene-7-dehydronaltrexone]', 'δ opioid receptor (Mus musculus, UniProt P32300)', 2.9),
  ('O=C1/C(=C/c2cccc(F)c2)C[C@@]2(O)[C@H]3Cc4ccc(O)c5c4[C@@]2(CCN3CC2CC2)[C@H]1O5', 'δ opioid receptor (Mus musculus, UniProt P32300)', 14),
  ('O=C1/C(=C/c2ccc([N+](=O)[O-])cc2)C[C@@]2(O)[C@H]3Cc4ccc(O)c5c4[C@@]2(CCN3CC2CC2)[C@H]1O5 [IIa, hydrochloride]', 'δ opioid receptor (Mus musculus, UniProt P32300)', 111),
  ('O=C1/C(=C/c2ccc(F)cc2)C[C@@]2(O)[C@H]3Cc4ccc(O)c5c4[C@@]2(CCN3CC2CC2)[C@H]1O5', 'δ opioid receptor (Mus musculus, UniProt P32300)', 77),
  ('O=C1/C(=C/c2ccc3ccccc3c2)C[C@@]2(O)[C@H]3Cc4ccc(O)c5c4[C@@]2(CCN3CC2CC2)[C@H]1O5', 'δ opioid receptor (Mus musculus, UniProt P32300)', 9.4);

---

measured.on: δ2 receptors (Cavia porcellus, UniProt A0A286XTF2)
Sequence (A0A286XTF2 1-366): as above
endpoint.label: Ki (µM)

INSERT INTO assay_data (molecule, measured_on, value_units, measurement) VALUES
  ('O=C1C(=Cc2ccccc2)C[C@@]2(O)[C@H]3Cc4ccc(O)c5c4[C@@]2(CCN3CC2CC2)[C@H]1O5 [BNTX, 7-Benzylidene-7-dehydronaltrexone]', 'δ2 receptors (Cavia porcellus, UniProt A0A286XTF2)', 'µM', 0.0108);

---

measured.on: δ opioid receptor (Mus musculus, UniProt P32300)
Construct: Both vasa deferentia were dissected out of mice; from tissue; host or cells: mouse vas deferens (isolated, electrically stimulated)
protocol.notes: antagonism of DADLE on MVD preparations (Example 7)
Format: cell-based
condition.summary: MVD; 100 nM of each compound, NTI = 20 nM; 15 min
endpoint.label: IC50 ratio (DADLE)

INSERT INTO results (molecule, measurement) VALUES
  ('O=C1/C(=C/c2ccc3ccccc3c2)C[C@@]2(O)[C@H]3Cc4ccc(O)c5c4[C@@]2(CCN3CC2CC2)[C@H]1O5 [IIm]', 11.6),
  ('O=C1/C(=C/c2cccc([N+](=O)[O-])c2)C[C@@]2(O)[C@H]3Cc4ccc(O)c5c4[C@@]2(CCN3CC2CC2)[C@H]1O5 [IIb]', 5.97),
  ('O=C1/C(=C/c2cccc(F)c2)C[C@@]2(O)[C@H]3Cc4ccc(O)c5c4[C@@]2(CCN3CC2CC2)[C@H]1O5 [IIh]', 7.87);
